All figures here come from PubChem BioAssay (NCI).

Test system: MALME-3M melanoma
Test: NCI tumour cell line growth inhibition, 48 h
propertyMeasured: GI50

Look at this compound and give its reported GI50. COc1ccc(NC(=O)Nc2ccc(Nc3nc(C)cc(Nc4ccc(C)cc4)n3)cc2)cc1
1830 nM

# lookup: GI50 of CCCCCCNC(=O)Oc1ccc(/C(=C(\C)c2ccccc2)c2ccc(OCCN3CCCCC3)cc2)cc1
1750 nM

// GI50 lookup, key: Cc1ccccc1-n1c(/C=C\c2ccccn2)nc2ccccc2c1=O
18800 nM

Give the measured GI50 of Cc1ccc(S(=O)(=O)NC(CCC(=O)Nc2ccccc2)C(=O)Nc2ccccc2)cc1 (centres undefined) .
745 nM

Value lookup for GI50; key = CCN(CC)CCCCCOc1cc(O)c2c(=O)cc(-c3ccccc3)oc2c1
1860 nM

GI50 for CCCCCC(=O)OCC(=O)O[C@@H]1C[C@]2(C(C)C)O[C@@]1(C)[C@@H]1CC[C@@H](C)[C@H]1[C@@H]2OC(=O)/C=C/c1ccccc1 ?
> 35400 nM

Field request: GI50 | item: C[C@H]1CCC/C=C/[C@@H]2C[C@H](O)C[C@H]2[C@H](O)[C@@H](S(=O)CCN)CC(=O)O1 (some centres undefined)
< 13.8 nM

# input compound: COc1cc(/C=C2\CC3C4CC=C5C[C@@H](N6CCCC6)CC[C@]5(C)C4CC[C@]3(C)[C@H]2OC(C)=O)ccc1OCCN1CCCCC1 (some centres undefined) ; wanted: its GI50
164 nM

Record request: GI50 value, item CS(=O)c1ccc(-c2nc(-c3ccc(F)cc3)c(-c3ccncc3)[nH]2)cc1 (centres undefined)
14200 nM

====

Exercise: state measured TGI for each of the molecules provided.
Test system: T-47D breast
Experiment: NCI tumour cell line growth inhibition, 48 h
Where a SMILES comes first, the peptide text is derived from it. [ ]: non-standard residue; d: D form. The star is where a group is joined. ξ: configuration not given here. ξPhe(4-NO2) = NC(Cc1ccc([N+](=O)[O-])cc1)C(=O)O; Boc = CC(C)(C)OC(=O)*; OBn = c1ccc(CO*)cc1

Could you tell me which TGI is on file for CC[C@H](Nc1nc(N)nc(N)c1Cl)c1nc2cccc(NCc3ccc(C(=O)NO)cc3)c2c(=O)n1-c1ccccc1 ?
10.7 µM

// lookup TGI for COc1ccc2c(c1OC)-c1c(c3ccc([N+](=O)[O-])cc3c(=O)n1CCCN=[N+]=[N-])C2=O
> 100 µM

Any idea what its TGI is? The molecule is CN(C)c1ncnc2c1ncn2C1C=CC(COS(N)(=O)=O)C1 (stereo unspecified)
> 100 µM

Name the recorded TGI for c1ccc2cc(OCC3CO3)c(OCC3CO3)cc2c1 (stereo unspecified) .
45.4 µM

Entry under review: CO[C@@](c1ccccc1)(c1nc(C#N)c(N)o1)C(F)(F)F . Reported TGI?
> 100 µM

Fill in the blank: the reported TGI of CCOC(=O)C1=C(C)N(C)C(=S)NC1c1cccc(O)c1 (stereo unspecified) is ____.
> 100 µM

# query: TGI of entry O=C1C=CN(C2OC(CO)C(O)C2O)C(=O)C1 (stereo unspecified)
> 1750 µM

Suppose we examine the molecule COc1cccc(Cn2cc3c(c2)-c2oncc2CC3)c1 ; what TGI value has been reported?
6.38 µM

Look up TGI for this molecule: c1ccc([C@@H]2N[C@@]3(CO[Si](c4ccccc4)(c4ccccc4)c4ccccc4)CC[C@H]4CN[C@@H]2[C@H]43)cc1
16.7 µM

Bench note: what TGI did COc1cccc2c1cc([N+](=O)[O-])c1c(C(=O)O)cc3c(c12)OCO3 show?
> 100 µM

Which TGI value is on record for CCCC(=O)N/S(=N/S(=O)(=O)c1ccc(Cl)cc1)C(Cl)(Cl)Cl (stereo unspecified) ?
> 100 µM

I have this molecule here, CC(C)(C)OC(=O)NC(Cc1ccc([N+](=O)[O-])cc1)C(=O)NCC(=O)OCc1ccccc1 (stereo unspecified) (Boc-[ξPhe(4-NO2)]-Gly-OBn) , and I need its recorded TGI.
> 100 µM

Field request: TGI | item: Cc1cnc2[nH]c(-c3ccc(F)cc3)cc(=O)c2c1
> 100 µM

Entry CC[C@@H](C)[C@H]([C@H](CC(=O)N1CCC[C@@H]1[C@@H](OC)[C@H](C)C(=O)N[C@H](Cc1ccccc1)c1nccs1)OC)N(C)C(=O)[C@H](NC(=O)[C@@H](C(C)C)N(C)C)C(C)C : reported TGI = ?
> 100 µM

Given CCCCSC1=N/C(=C\c2ccco2)C(=O)N1 , state its recorded TGI.
> 100 µM

Need TGI of C[C@H]1CCC/C=C/[C@@H]2C[C@H](O)C[C@H]2[C@H](O)[C@@H](S(=O)CCN)CC(=O)O1 (stereo partly specified) , thanks.
0.544 µM

Which TGI value is on record for COc1cc2c(cc1OC)C1C(O)C(OC)C=C3CC[N+](C)(C2)C31 (stereo unspecified) ?
> 100 µM

So what does the record say about TGI for Oc1ccc(/C=N/Nc2nc3ccccc3s2)c(O)c1 ?
> 100 µM

Consider the molecule shown here: CC(C)(C)C1CCC2(CC1)CCN(CCCN1CCOCC1)CC2 What is its recorded TGI?
> 100 µM

TGI lookup needed for NC(=O)C(=CN1C(=O)CC(=O)NC1=S)C(N)=O , thanks.
> 100 µM

Can you look up the measured TGI of CC1=NN2C(=O)CC(=O)N=C2S1 for me?
> 100 µM

Value lookup for TGI; key = CCCC(=O)NC(c1ccc2c(c1)OCO2)c1ccc2cccnc2c1O (stereo unspecified)
> 100 µM

# lookup: TGI of CC1(C)OC(=O)C(C)(C)OC1=O
> 100 µM

So what's the measured TGI for this one? COC(=O)[C@@H](Cc1c[nH]c2ccccc12)NC(=O)/C=C/c1ccccc1
> 100 µM

State the recorded TGI for this entry: O=C(NCCCNC(=O)OCc1ccc2c(Br)cc(Br)c(O)c2n1)OCc1ccc2c(Br)cc(Br)c(O)c2n1
> 100 µM

Name the recorded TGI for Cc1[nH]n(-c2nc3c(c(=O)[nH]2)CCC3)c(=O)c1CCO .
> 100 µM

Which TGI value belongs to O=C1c2ccccc2C(=O)c2c(NCCNC(=O)C3CCCN3)ccc(NCCNC(=O)C3CCCN3)c21 (stereo unspecified) ?
> 100 µM

Need TGI of COc1ccc2c(c1)N(C(C)=O)CN1C(=O)CCC21 (stereo unspecified) , thanks.
> 100 µM

Look up TGI for this molecule: CCn1c(-c2nonc2N)nc2c(C#CC(C)(C)O)nc(O[C@@H](CN)c3ccccc3)cc21
2.34 µM

Which measured TGI value corresponds to Oc1ccc(Br)cc1/C=N/NC(=S)NC12CC3CC(CC(C3)C1)C2 ?
8.33 µM

I have this molecule here, CC(C)=CCC/C(C)=C/CC/C(=C/COP(=O)(OCc1ccc([N+](=O)[O-])o1)N(C)CCCCCl)CC=C(C)C (stereo unspecified) , and I need its recorded TGI.
> 100 µM

Which TGI value is on record for Cc1ccc(S(=O)(=O)NC(=O)NCC(=O)NCC(=O)O)cc1 ?
> 100 µM

Form field: reported TGI of CCOC(=O)N1c2ccccc2S(=O)(=O)c2ccccc21
> 100 µM

Entry COc1cc2nc(-c3ccc(-n4cncc4-c4ccc(N)cc4)cc3)sc2c(OC)c1OC has what TGI?
6.71 µM

# get_value(readout='TGI', item= CS(=O)(=O)c1[nH]nc2[nH]c(=O)[nH]c(=O)c12 )
> 10 µM

Would you mind telling me what TGI value was observed for COc1ccc(CNc2nc(NCc3ccc(OC)cc3)nc(NC(C)C)n2)cc1 ?
> 100 µM

Any idea what its TGI is? The molecule is CC(=N/NC(=S)Nc1c(C)n(C)n(-c2ccccc2)c1=O)/C(C)=N\NC(=S)Nc1c(C)n(C)n(-c2ccccc2)c1=O
> 100 µM

Record request: TGI value, item CCOC(=O)c1cc2cc(NC(=O)c3cc4cc([N+](=O)[O-])ccc4n3C)ccc2n1C
> 100 µM

GET /values?readout=TGI&item= COC(=O)/C(C#N)=C1\NC(=O)CC(c2ccccc2)C1C#N (stereo unspecified)
> 100 µM

Form field: reported TGI of Nc1nc(Cl)cc(NCC2(CO)CCC2)n1
> 100 µM

Recorded TGI for N#CC1=C(C#N)/C(=C(\C#N)C(C#N)C#N)N=C1N , please?
> 100 µM
